System: NCI-H1618 multicellular tumor spheroid viability
Experiment Summary: Anticancer human tumor NCI-H1618 cell line growth inhibition;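 further: spheroids exposed to agents for 7 days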
Experimental Conditions: second compound 0.00949 µM; first compound 3 µM; stronger effect = lower value
Readout Label: viability, T/C (%)
A number alone suffices; assume %.

| Compound | System Tested | viability, T/C [%] |
| --- | --- | --- |
| Cc1sc2c(c1C)C(c1ccc(Cl)cc1)=NC(CC(=O)Nc1ccc(O)cc1)c1nnc(C)n1-2 (centres undefined) + CC[C@@]1(O)C(=O)OCc2c1cc1n(c2=O)Cc2cc3c(CN(C)C)c(O)ccc3nc2-1 | NCI-H1618 multicellular tumor spheroid viability | 0.93 |

I have this compound here, CNCc1ccc(-c2cc(-c3nc(-c4ccc(S(=O)(=O)C(C)C)cc4)cnc3N)on2)cc1 + CC[C@@]1(O)C(=O)OCc2c1cc1n(c2=O)Cc2cc3c(CN(C)C)c(O)ccc3nc2-1 , and I need its recorded viability, T/C. 0.62

I have this compound here, Cn1ncnc1[C@H]1c2n[nH]c(=O)c3cc(F)cc(c23)N[C@@H]1c1ccc(F)cc1 + CC[C@@]1(O)C(=O)OCc2c1cc1n(c2=O)Cc2cc3c(CN(C)C)c(O)ccc3nc2-1 , and I need its recorded viability, T/C. 1.52

I have this compound here, O=C(c1cc(Cc2n[nH]c(=O)c3ccccc23)ccc1F)N1CCN(C(=O)C2CC2)CC1 + CC[C@@]1(O)C(=O)OCc2c1cc1n(c2=O)Cc2cc3c(CN(C)C)c(O)ccc3nc2-1 , and I need its recorded viability, T/C. 2.37

* * *

Tested on: NCI-H1618 multicellular tumor spheroid viability
Experiment Summary: Anticancer human tumor NCI-H1618 cell line growth inhibition;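 further: spheroids exposed to agents for 7 days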
Experimental Conditions: second compound 0.0949 µM; first compound 10 µM; stronger effect = lower value
1.0 if viability, T/C is below 5%. 0.0 if not; exact matches included in 0.0.

Some entries whose results are on file:
| Compound | Label Class |
| --- | --- |
| CC1COCCN1c1cc(-c2ccnn2C)c2ccnc(-c3ccn[nH]3)c2n1 (stereo unspecified) + CC[C@@]1(O)C(=O)OCc2c1cc1n(c2=O)Cc2cc3c(CN(C)C)c(O)ccc3nc2-1 | 1.0 |
| COc1cc(C)[nH]c(=O)c1CN1CCc2c(Cl)cc(C(OC)C3COC3)c(Cl)c2C1=O (stereo unspecified) + CC[C@@]1(O)C(=O)OCc2c1cc1n(c2=O)Cc2cc3c(CN(C)C)c(O)ccc3nc2-1 | 0.0 |
| [2H]c1nc(C)nc([2H])c1-c1cc(NC[C@@H](C)c2cccc3c(C(=O)NC)ccnc23)ncn1 + CC[C@@]1(O)C(=O)OCc2c1cc1n(c2=O)Cc2cc3c(CN(C)C)c(O)ccc3nc2-1 | 0.0 |
| COc1ccc([C@@H](O)c2cc(-c3ncnc4cc(N5CCOCC5)ccc34)c(F)cc2Cl)nn1 + CC[C@@]1(O)C(=O)OCc2c1cc1n(c2=O)Cc2cc3c(CN(C)C)c(O)ccc3nc2-1 | 1.0 |

Okay, now this compound:
Strictly below 5%: is that where viability, T/C of Cc1cc(C)c(CNC(=O)c2cc(-c3ccc(CN4CCOCC4)cc3)cc3c2cnn3C2CCCC2)c(=O)[nH]1 + CC[C@@]1(O)C(=O)OCc2c1cc1n(c2=O)Cc2cc3c(CN(C)C)c(O)ccc3nc2-1 sits? 1.0

* * *

The following molecules are listed with their measured pIC50 values.
Tested on: NCI-H1618 multicellular tumor spheroid viability
Experiment Summary: Anticancer human tumor NCI-H1618 cell line growth inhibition;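 further: spheroids exposed to agents for 7 days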
Experimental Conditions: curve of first compound; second compound 100 µM
pIC50: −log10 of the molar value.

Solved entries:
| Molecule | pIC50 |
| --- | --- |
| CC1COCCN1c1cc(-c2ccnn2C)c2ccnc(-c3ccn[nH]3)c2n1 (stereo not given) + Cn1nnc2c(C(N)=O)ncn2c1=O | > 7.50 |
| Cn1ncnc1[C@H]1c2n[nH]c(=O)c3cc(F)cc(c23)N[C@@H]1c1ccc(F)cc1 + Cn1nnc2c(C(N)=O)ncn2c1=O | > 8.02 |
| Cc1sc2c(c1C)C(c1ccc(Cl)cc1)=NC(CC(=O)Nc1ccc(O)cc1)c1nnc(C)n1-2 (stereo not given) + Cn1nnc2c(C(N)=O)ncn2c1=O | 6.84 |
| CC(C)n1c(=O)n(C)c2cnc3cc(F)c(-c4ccc(OCCCN5CCCCC5)nc4)cc3c21 + Cn1nnc2c(C(N)=O)ncn2c1=O | 5.35 |
| COc1ccc([C@@H](O)c2cc(-c3ncnc4cc(N5CCOCC5)ccc34)c(F)cc2Cl)nn1 + Cn1nnc2c(C(N)=O)ncn2c1=O | > 7.50 |
| Cc1cc(C)c(CNC(=O)c2cc(-c3ccc(CN4CCOCC4)cc3)cc3c2cnn3C2CCCC2)c(=O)[nH]1 + Cn1nnc2c(C(N)=O)ncn2c1=O | > 7.50 |
| [2H]c1nc(C)nc([2H])c1-c1cc(NC[C@@H](C)c2cccc3c(C(=O)NC)ccnc23)ncn1 + Cn1nnc2c(C(N)=O)ncn2c1=O | > 7.50 |
| CNCc1ccc(-c2cc(-c3nc(-c4ccc(S(=O)(=O)C(C)C)cc4)cnc3N)on2)cc1 + Cn1nnc2c(C(N)=O)ncn2c1=O | > 8.02 |

I have this molecule here, COc1cc(C)[nH]c(=O)c1CN1CCc2c(Cl)cc(C(OC)C3COC3)c(Cl)c2C1=O (stereo not given) + Cn1nnc2c(C(N)=O)ncn2c1=O , and I need its recorded pIC50. > 7.50

I have this molecule here, O=C(c1cc(Cc2n[nH]c(=O)c3ccccc23)ccc1F)N1CCN(C(=O)C2CC2)CC1 + Cn1nnc2c(C(N)=O)ncn2c1=O , and I need its recorded pIC50. > 7.02

* * *

System: NCI-H1618 multicellular tumor spheroid viability
Experiment Summary: Anticancer human tumor NCI-H1618 cell line growth inhibition; active = viability on the fitted dose curve at most 10% of control; inactive = the rest;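 further: spheroids exposed to agents for 7 days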
Experimental Conditions: second compound 30 pM; first compound 0.1 µM
Thanks in advance; please answer with one of these: 1 = active, 0 = inactive

| Compound | Label Class |
| --- | --- |
| CC1COCCN1c1cc(-c2ccnn2C)c2ccnc(-c3ccn[nH]3)c2n1 (configuration not stated) + COc1cc2c(cc1O)CCNC21CSC2c3c(OC(C)=O)c(C)c4c(c3C(COC1=O)N1C(O)C3Cc5cc(C)c(OC)c(O)c5C(C21)N3C)OCO4 | 1 |

Tell me the recorded outcome of this test for [2H]c1nc(C)nc([2H])c1-c1cc(NC[C@@H](C)c2cccc3c(C(=O)NC)ccnc23)ncn1 + COc1cc2c(cc1O)CCNC21CSC2c3c(OC(C)=O)c(C)c4c(c3C(COC1=O)N1C(O)C3Cc5cc(C)c(OC)c(O)c5C(C21)N3C)OCO4 . 0

* * *

Tested on: NCI-H1618 multicellular tumor spheroid viability
Experiment Summary: Anticancer human tumor NCI-H1618 cell line growth inhibition;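 further: spheroids exposed to agents for 7 days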
Experimental Conditions: second compound 0.000949 µM; first compound 0.3 µM; stronger effect = lower value
Protocol: Multicellular complex tumor spheroid response to DNA repair inhibitors in combination with DNA-damaging drugs This study explores the anticancer activities of DNA-damaging drugs and inhibitors of DNA damage repair, both as single agents and in combinations. […] Twenty-six patient-derived or established malignant cell lines were evaluated representing sarcoma, melanoma, small cell lung cancer (SCLC), non-small cell lung cancer (NSCLC), as well as bladder, ovarian and pancreatic cancers. […]
Readout Label: viability, T/C (%)
A number alone suffices; assume %.

| Compound | viability, T/C (%) |
| --- | --- |
| Cn1ncnc1[C@H]1c2n[nH]c(=O)c3cc(F)cc(c23)N[C@@H]1c1ccc(F)cc1 + COc1cc2c(cc1O)CCNC21CSC2c3c(OC(C)=O)c(C)c4c(c3C(COC1=O)N1C(O)C3Cc5cc(C)c(OC)c(O)c5C(C21)N3C)OCO4 | 4.08 |
| O=C(c1cc(Cc2n[nH]c(=O)c3ccccc23)ccc1F)N1CCN(C(=O)C2CC2)CC1 + COc1cc2c(cc1O)CCNC21CSC2c3c(OC(C)=O)c(C)c4c(c3C(COC1=O)N1C(O)C3Cc5cc(C)c(OC)c(O)c5C(C21)N3C)OCO4 | 3.59 |
| CNCc1ccc(-c2cc(-c3nc(-c4ccc(S(=O)(=O)C(C)C)cc4)cnc3N)on2)cc1 + COc1cc2c(cc1O)CCNC21CSC2c3c(OC(C)=O)c(C)c4c(c3C(COC1=O)N1C(O)C3Cc5cc(C)c(OC)c(O)c5C(C21)N3C)OCO4 | 3.07 |

Here's the next entry for you.
I have this compound here, Cc1sc2c(c1C)C(c1ccc(Cl)cc1)=NC(CC(=O)Nc1ccc(O)cc1)c1nnc(C)n1-2 (centres undefined) + COc1cc2c(cc1O)CCNC21CSC2c3c(OC(C)=O)c(C)c4c(c3C(COC1=O)N1C(O)C3Cc5cc(C)c(OC)c(O)c5C(C21)N3C)OCO4 , and I need its recorded viability, T/C. 0.74

* * *

System: NCI-H1618 multicellular tumor spheroid viability
Experiment Summary: Anticancer human tumor NCI-H1618 cell line growth inhibition; active = viability on the fitted dose curve at most 10% of control; inactive = the rest;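 further: spheroids exposed to agents for 7 days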
Experimental Conditions: second compound 0.0003 µM; first compound 0.1 µM
Thanks in advance; please answer with one of these: active, inactive

Some entries whose results are on file:
| Compound | Label Class |
| --- | --- |
| CC(C)n1c(=O)n(C)c2cnc3cc(F)c(-c4ccc(OCCCN5CCCCC5)nc4)cc3c21 + COc1cc2c(cc1O)CCNC21CSC2c3c(OC(C)=O)c(C)c4c(c3C(COC1=O)N1C(O)C3Cc5cc(C)c(OC)c(O)c5C(C21)N3C)OCO4 | active |
| Cc1cc(C)c(CNC(=O)c2cc(-c3ccc(CN4CCOCC4)cc3)cc3c2cnn3C2CCCC2)c(=O)[nH]1 + COc1cc2c(cc1O)CCNC21CSC2c3c(OC(C)=O)c(C)c4c(c3C(COC1=O)N1C(O)C3Cc5cc(C)c(OC)c(O)c5C(C21)N3C)OCO4 | active |
| COc1ccc([C@@H](O)c2cc(-c3ncnc4cc(N5CCOCC5)ccc34)c(F)cc2Cl)nn1 + COc1cc2c(cc1O)CCNC21CSC2c3c(OC(C)=O)c(C)c4c(c3C(COC1=O)N1C(O)C3Cc5cc(C)c(OC)c(O)c5C(C21)N3C)OCO4 | inactive |

Okay, now this compound:
Tell me the recorded outcome of this test for CC1COCCN1c1cc(-c2ccnn2C)c2ccnc(-c3ccn[nH]3)c2n1 (centres undefined) + COc1cc2c(cc1O)CCNC21CSC2c3c(OC(C)=O)c(C)c4c(c3C(COC1=O)N1C(O)C3Cc5cc(C)c(OC)c(O)c5C(C21)N3C)OCO4 . active
